assayed-target: T1, Ac-IKPD-AMC
T1 chain: XIKPDX
Would you kindly list Kcat/Km for each of these proteins?

rat granzyme B N218A/R192E (protein) IIGGHEAKPHSRPYMAYLQIMDEYSGSKKCGGFLIREDFVLTAAHCSGSKINVTLGAHNIKEQEKMQQIIPVVKIIPHPAYNSKTISNDIMLLKLKSKAKRSSAVKPLNLPRRNVKVKPGDVCYVAGWGKLGPMGKYSDTLQEVELTVQEDQKCESYLKNYFDKANEICAGDPKIKRASFEGDSGGPLVCKKVAAGIVSYGQADGSTPRAFTKVSTFLSWIKKTMKKS
73 M⁻¹ s⁻¹
rat granzyme B N218A/R192A (protein) IIGGHEAKPHSRPYMAYLQIMDEYSGSKKCGGFLIREDFVLTAAHCSGSKINVTLGAHNIKEQEKMQQIIPVVKIIPHPAYNSKTISNDIMLLKLKSKAKRSSAVKPLNLPRRNVKVKPGDVCYVAGWGKLGPMGKYSDTLQEVELTVQEDQKCESYLKNYFDKANEICAGDPKIKRASFAGDSGGPLVCKKVAAGIVSYGQADGSTPRAFTKVSTFLSWIKKTMKKS
55 M⁻¹ s⁻¹
wild-type rat granzyme B (protein) IIGGHEAKPHSRPYMAYLQIMDEYSGSKKCGGFLIREDFVLTAAHCSGSKINVTLGAHNIKEQEKMQQIIPVVKIIPHPAYNSKTISNDIMLLKLKSKAKRSSAVKPLNLPRRNVKVKPGDVCYVAGWGKLGPMGKYSDTLQEVELTVQEDQKCESYLKNYFDKANEICAGDPKIKRASFRGDSGGPLVCKKVAAGIVSYGQNDGSTPRAFTKVSTFLSWIKKTMKK
99 M⁻¹ s⁻¹

Okay, next one:
Value of measured Kcat/Km for the entry rat granzyme B N218T (protein) IIGGHEAKPHSRPYMAYLQIMDEYSGSKKCGGFLIREDFVLTAAHCSGSKINVTLGAHNIKEQEKMQQIIPVVKIIPHPAYNSKTISNDIMLLKLKSKAKRSSAVKPLNLPRRNVKVKPGDVCYVAGWGKLGPMGKYSDTLQEVELTVQEDQKCESYLKNYFDKANEICAGDPKIKRASFRGDSGGPLVCKKVAAGIVSYGQTDGSTPRAFTKVSTFLSWIKKTMKKS : 600 M⁻¹ s⁻¹
